Ref: patent US20240002375A1

tested on: HTT mRNA; experiment: Splicing assay (RT-qPCR) of HTT mRNA alternative junction (AJ) and canonical junction (CJ); type: cell-based; conditions: decrease in CJ mRNA; A673 or K562 cells, 24 hours; read-out: HTT CJ IC50
Measured property: IC50

Cn1cc2c(O)c(-c3ncc4nc(C5CCNCC5)ccc4n3)ccc2n1
1000 to 10000 nM
Cn1cc2cc(-c3ccc4nc(N5CC[C@@H](NC6CCC6)C5)ccc4n3)c(O)cc2n1
< 100 nM
CN[C@H]1CCN(c2ccc3nc(-c4cc5cn(C)nc5cc4O)ccc3n2)C1
< 100 nM
Cn1cc2cc(-c3ccc4cc(C5CCNCC5)ccc4n3)c(O)c(F)c2n1
< 100 nM

Data request: Which IC50 value is on record for CN(c1ccc2nc(-c3cc4cn(C)nc4cc3O)ccc2n1)C1CC(C)(C)NC(C)(C)C1 ?
Data returned: > 10000 nM

Data request: Which IC50 value is on record for Cn1cc2cc(-c3ccc4nc(N5CC[C@]67CCN[C@H]6CC[C@H]57)ccc4n3)c(O)cc2n1 ?
Data returned: 100 to 1000 nM

Data request: Which IC50 value is on record for Cn1cc2cc(-c3ccc4nc(N5CCC56CCNC6)ccc4n3)c(O)cc2n1 (stereo not shown) ?
Data returned: > 10000 nM

Data request: Which IC50 value is on record for Cc1nc2c(C)c(O)c(-c3ccc4nc(N5CCC(NC6CCC6)C5)ccc4n3)cc2o1 (single isomer, unassigned) [Compound 237] ?
Data returned: < 100 nM

Data request: Which IC50 value is on record for Cc1nc2c(C)c(O)c(-c3ccc4nc(N5CCC(NC6CC6)C5)ccc4n3)cc2o1 (single isomer, unassigned) [Compound 217] ?
Data returned: < 100 nM

Data request: Which IC50 value is on record for CCN[C@@H]1CCN(c2ccc3nc(-c4cc5cn(C)nc5cc4O)ccc3n2)C1 ?
Data returned: < 100 nM

Data request: Which IC50 value is on record for Cn1cc2cc(-c3ccc4nc(OC5CNC5)ccc4n3)c(O)cc2n1 ?
Data returned: 1000 to 10000 nM

Data request: Which IC50 value is on record for CN1CCC12CCN(c1ccc3nc(-c4cc5cn(C)nc5cc4O)ccc3n1)C2 (stereo not shown) ?
Data returned: 100 to 1000 nM

Data request: Which IC50 value is on record for Cn1cc2cc(-c3ccc4nc(N5CC[C@@H](NC6(C)CC6)C5)ccc4n3)c(O)c(F)c2n1 (single isomer, unassigned) ?
Data returned: < 100 nM

Data request: Which IC50 value is on record for Cn1cc2cc(-c3ccc4nc(C5CCNCC5)ccc4n3)ncc2n1 ?
Data returned: 1000 to 10000 nM

Data request: Which IC50 value is on record for Cn1cc2cc(-c3ccc4nc(N5CC[C@H](NC(C)(C)C)C5)ccc4n3)c(O)cc2n1 ?
Data returned: < 100 nM

Data request: Which IC50 value is on record for Cc1cn2nc(-c3ccc4nc(N5CCC(NC(C)(C)C)C5)ccc4n3)cc2c(C)n1 (stereo not shown) ?
Data returned: < 100 nM
